Reference for the values: patent US20170304388A1

Item-by-item account of viability at 10 µM
system: MCF7 (Mammary Gland, Adenocarcinoma); experiment: Cell viability analysis (WST-1), MCF7; assay type: cell-based; settings: Homo sapiens, MCF7, 72 h, Table 3, drug 10 μM, WST-1, OD450 nm, read-out: survival rate (viability) of cancer cells, MCF7
Where a name gives a salt, the structure may show the parent alone.
Mention the unit after the number when you answer.

Answered cases to consult:
Clc1ccccc1CN1CCc2sccc2C1 [Ticlopidine HCl]	96.8%
O=C(O)/C=C/c1ccc(Cn2ccnc2)cc1	102%
CCCSc1nc(N[C@@H]2C[C@H]2c2ccc(F)c(F)c2)c2nnn([C@@H]3C[C@H](OCCO)[C@@H](O)[C@H]3O)c2n1	83.1%

As a next step, examine the compound that follows.
Assign viability at 10 µM to the following record: CC1Cc2ccccc2N1NC(=O)c1ccc(Cl)c(S(N)(=O)=O)c1 (stereo not shown) [Indapamide (Lozol), Indapamide]
65.5%
